Here is a set of compounds with reported IC50 for Monoglyceride lipase (Mus musculus), compiled from the literature.

# annotated cases, reported IC50 shown
[[record]]
compound = "CC(=O)N(C)c1cnn(C(=O)N2CC3CN(Cc4cc(Cl)cc(N5CC6COCC6C5)c4)CC3C2)c1 (stereo not drawn)"
target_entity = "Monoglyceride lipase (Mus musculus)"
quantity_measured = "IC50"
measured_value = "≤ 0.1 µM"

[[record]]
compound = "CC(=O)N(C)c1cnn(C(=O)N2CC3CN(Cc4ccc(OCC(=O)N5CCCC5)cc4Cl)CC3C2)c1 (stereo not drawn)"
target_entity = "Monoglyceride lipase (Mus musculus)"
quantity_measured = "IC50"
measured_value = "1 to 10 µM"

[[record]]
compound = "O=C(OC(C(F)(F)F)C(F)(F)F)N1CCC2(CCN(Cc3ccc(Cl)cc3N3CCOCC3)CC2)C1"
target_entity = "Monoglyceride lipase (Mus musculus)"
quantity_measured = "IC50"
measured_value = "< 0.1 µM"

[[record]]
compound = "CC(=O)N(C)c1cnn(C(=O)N2C[C@H]3C[C@H](N(C)Cc4cc(Cl)ccc4C(F)(F)F)C[C@H]3C2)c1"
target_entity = "Monoglyceride lipase (Mus musculus)"
quantity_measured = "IC50"
measured_value = "≤ 0.1 µM"

[[record]]
compound = "CC(=O)N(C)c1cnn(C(=O)N2CC3CN(Cc4cccc(Cl)c4)CC3C2)c1 (stereo not drawn)"
target_entity = "Monoglyceride lipase (Mus musculus)"
quantity_measured = "IC50"
measured_value = "0.1 to 1 µM"


**Q:** State measured IC50 of the compound O=C(OC(C(F)(F)F)C(F)(F)F)N1CCC2(CCCN2Cc2cc3c(Cl)cc(Cl)cc3[nH]2)CC1 with Monoglyceride lipase (Mus musculus).
**A:** < 0.1 µM

**Q:** State measured IC50 of the compound O=C(OC(C(F)(F)F)C(F)(F)F)N1CCC2(CCCN2C(=O)c2ccc(Cl)cc2)CC1 with Monoglyceride lipase (Mus musculus).
**A:** < 0.1 µM

**Q:** State measured IC50 of the compound O=C(OC(C(F)(F)F)C(F)(F)F)N1CCC2(CCCN2Cc2cnc3ccccn23)CC1 with Monoglyceride lipase (Mus musculus).
**A:** < 0.1 µM

**Q:** State measured IC50 of the compound CS(=O)(=O)N1CC2(CCN(c3cc(Cl)ccc3CN3CCN(C(=O)OC(C(F)(F)F)C(F)(F)F)CC3)C2)C1 with Monoglyceride lipase (Mus musculus).
**A:** < 0.1 µM

**Q:** State measured IC50 of the compound O=C(OC(C(F)(F)F)C(F)(F)F)N1CCC2(CC1)CN(Cc1c(N3CCCCC3)cccc1C(F)(F)F)C2 with Monoglyceride lipase (Mus musculus).
**A:** < 0.1 µM

**Q:** State measured IC50 of the compound CC(=O)N(C)c1cnn(C(=O)N2CC3CN(Cc4cccc(C(F)(F)F)c4)CC3C2)c1 (stereo not drawn) with Monoglyceride lipase (Mus musculus).
**A:** ≤ 0.1 µM

**Q:** State measured IC50 of the compound CCN1CCN(c2cccc(C(F)(F)F)c2CN2CC3(CCN(C(=O)OC(C(F)(F)F)C(F)(F)F)CC3)C2)CC1 with Monoglyceride lipase (Mus musculus).
**A:** < 0.1 µM

**Q:** State measured IC50 of the compound CS(=O)(=O)Nc1cnn(C(=O)N2CCN(Cc3ccc(N4CCCC4)cc3C(F)(F)F)CC2)c1 with Monoglyceride lipase (Mus musculus).
**A:** ≤ 0.1 µM

**Q:** State measured IC50 of the compound CCN1CCCc2cccc(CN3CC4(CCN(C(=O)OC(C(F)(F)F)C(F)(F)F)CC4)C3)c21 with Monoglyceride lipase (Mus musculus).
**A:** < 0.1 µM

**Q:** State measured IC50 of the compound CC(=O)N(C)c1cnn(C(=O)N2CCN(Cc3cccc(Oc4ccccc4)c3)CC2)c1 with Monoglyceride lipase (Mus musculus).
**A:** ≤ 0.1 µM
